Values compiled from patent US20130064834A1.

# system: T1, mouse PCSK9, myc-myc-his tagged (mouse, UniProt Q80W65 35-694)
# T1 construct: also called mPCSK9-mmh; mPCSK9
# T1 sequence (Q80W65 35-694 limits assumed): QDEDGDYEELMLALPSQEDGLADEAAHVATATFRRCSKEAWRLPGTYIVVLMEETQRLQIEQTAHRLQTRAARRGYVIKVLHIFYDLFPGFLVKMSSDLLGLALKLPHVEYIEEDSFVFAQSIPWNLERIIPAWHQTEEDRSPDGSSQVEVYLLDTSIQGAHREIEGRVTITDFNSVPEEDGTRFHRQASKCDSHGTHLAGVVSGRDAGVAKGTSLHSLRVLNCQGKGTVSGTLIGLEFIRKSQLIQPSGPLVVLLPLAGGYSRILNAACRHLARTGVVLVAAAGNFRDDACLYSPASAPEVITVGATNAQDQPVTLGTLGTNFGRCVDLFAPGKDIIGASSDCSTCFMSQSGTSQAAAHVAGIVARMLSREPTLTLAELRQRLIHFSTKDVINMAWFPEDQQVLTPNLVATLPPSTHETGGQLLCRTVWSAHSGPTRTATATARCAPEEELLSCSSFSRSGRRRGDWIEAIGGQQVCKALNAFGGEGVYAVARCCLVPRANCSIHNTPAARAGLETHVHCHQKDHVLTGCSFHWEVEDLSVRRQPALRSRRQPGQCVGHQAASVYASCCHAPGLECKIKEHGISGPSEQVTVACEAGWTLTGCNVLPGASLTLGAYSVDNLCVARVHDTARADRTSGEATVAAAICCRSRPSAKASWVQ
# protocol_summary: ELISA, mAb coated, 1.2 nM antigen;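 also: antigen allowed to bind for 1 h at room temperature, then captured protein revealed with an HRP-linked polyclonal anti-myc antibody and read as optical density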

>  <binder>
H1M495 (antibody, V domains shown, Hybridoma-derived chimeric antibody (human variable, mouse constant)) VH: EVQLVESGGGLVQPGRSLRLSCAASGFTFDDYAMHWVRQAPGKGLEWVSGINWNSGSIGYADSVKGRFTISRDNAKHSLYLQMNSLRPEDTALYYCVKEVTTGYYYGMDVWGQGTTVTVSS VL: DIQLTQSPSFLSASVGDRVTITCWASQGISSYLAWYQKKPGKAPNLLIYDASTLQSGVPSRFSGSGSGTEFTLTLSSLQPEDFATYYCQQLNIYPFTFGPGTKVDIK

>  <OD>
< 0.4 od

$$$$
>  <binder>
H1M498 (antibody, V domains shown, Hybridoma-derived chimeric antibody (human variable, mouse constant)) VH: EVQLVESGGGLVKPGGSLRLSCAASGFTFSSYSMDWVRQAPGKGLEWVSSISSSSSYIYYADSVKGRFTISRDTAKNSLYLQMNSLRDEDTAVYYCAREGSSRLFDYWGQGTLVTVSS VL: DIQMTQSPSTLSASVGDRVTITCRASQSISSWLAWYQQRPGKAPKLLIYKASSLEGGVPSRFSGSGSGTEFTLTISSLQPEDFATYYCQQYNSYWYTFGQGTKLEIK

>  <OD>
< 0.4 od

$$$$
>  <binder>
H1H320P (antibody, V domains shown, Fully human antibody cloned from B cells, made in CHO cells) VH: QVQLVQSGAEVKKPGASVKVSCKASGYTFTNYGISWVRQAPGQGLELMGWISGYNGNTNYAQELQARVTMTTDTSTSTAYMELRNLRSDDTAVYYCARDRVVVAAANYYFYSMDVWGQGTTVTVSS VL: DVVMTQSPLSLSVTLGQPASISCRSSQSLVYSDGDTYLNWFQQRPGQSPRRLIYKVSNRDSGVPDRFSGSGSGTAFTLKISGVEAEDVGVYYCMQATHWPRTFGQGTKVEIK

>  <OD>
< 0.4 od

$$$$
>  <binder>
H1H318P (antibody, V domains shown, Fully human antibody cloned from B cells, made in CHO cells) VH: QVQLQESGPGLVKPSETLSLTCTVSGDSINTYYWSWFRQPPGKGLEWIGYIYYSGTTNYNPSLKSRVTISIDTPRNQFSLKLISVTAADTAVYYCARERITMIRGVTLYYYSYGMDVWGQGTTVTVSS VL: DIQMTQSPSFLSASVGDRVTITCWASQDISSYLAWYQQKPGIAPKLLIYAASTLQSGVPSRFGGSGSGTEFTLTISSLQPEDFATYYCQQLNSYPRTFGQGTKVEIK

>  <OD>
< 0.4 od

$$$$
